target: Sialic acid-binding Ig-like lectin 9 (Homo sapiens) (UniProt Q9Y336); experiment: Hs-Siglec9 ALPHAscreen SOP 20170721; design: scale not given: direction of the effect not stated beside the values; settings: 10 µM
Sequence (Q9Y336 whole entry): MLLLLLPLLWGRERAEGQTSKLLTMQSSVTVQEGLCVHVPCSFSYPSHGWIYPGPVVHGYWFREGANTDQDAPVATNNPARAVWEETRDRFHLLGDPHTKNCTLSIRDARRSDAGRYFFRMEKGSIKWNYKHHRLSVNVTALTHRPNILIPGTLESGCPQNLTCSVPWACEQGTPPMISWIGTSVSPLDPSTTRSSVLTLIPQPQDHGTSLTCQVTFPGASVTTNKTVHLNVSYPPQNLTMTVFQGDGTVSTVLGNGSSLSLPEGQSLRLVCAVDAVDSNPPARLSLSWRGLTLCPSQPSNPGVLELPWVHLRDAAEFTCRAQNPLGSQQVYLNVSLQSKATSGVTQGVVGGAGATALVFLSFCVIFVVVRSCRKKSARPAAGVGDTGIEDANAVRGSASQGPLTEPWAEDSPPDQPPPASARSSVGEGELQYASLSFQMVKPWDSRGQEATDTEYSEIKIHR
measured parameter: Percent Effect (%)
Your answer should be a plain number; it is taken to be in %.

-- ask Record request: Percent Effect value, item Cc1nc(C)n(CC2CCCN2CC(=O)NCc2ccco2)n1 (configuration not stated)
-- reply 4.18

-- ask # get_value(readout='Percent Effect', item= OCCOCCN1CCCC1c1nc2cc(F)ccc2[nH]1 (configuration not stated) )
-- reply -1.07

-- ask Could you tell me which Percent Effect is on file for CN(CC1CCCCO1)C(=O)c1ccnc(OC2CCC2)c1 (configuration not stated) ?
-- reply 1.71

-- ask Fill in the blank: the reported Percent Effect of Cc1cnn(CCNCc2cccnc2)c1 is ____.
-- reply 2.04

-- ask Record request: Percent Effect value, item O=C(CCc1ccsc1)NCC1CCN(c2ccccc2)C1 (configuration not stated)
-- reply -4.12

-- ask Look up Percent Effect for this compound: Cc1ncsc1CN1C[C@@H]2COC[C@]2(COc2ccc(C#N)cn2)C1
-- reply 1.31

-- ask Percent Effect for CCS(=O)(=O)N1CCC2(CCC2NC(=O)c2ccn(C)c2)CC1 (configuration not stated) ?
-- reply -0.914

-- ask Find the recorded Percent Effect belonging to CC(C)OCc1ncn2c1CN(Cc1ccc(F)cc1)CCC2 and report it.
-- reply 2.94

-- ask Which Percent Effect value is on record for COc1ccccc1CC1CCCN(CCC#N)C1 (configuration not stated) ?
-- reply 2.02

-- ask Field request: Percent Effect | item: Cn1cc(C(=O)NC2CCN(C(=O)NCCSC(F)(F)F)CC2)cn1
-- reply 2.15

-- ask Item Cn1cnc2c1C(COCC1CCOCC1)CN(C1CCOCC1)C2 (configuration not stated) has what recorded Percent Effect?
-- reply 4.02

-- ask Field request: Percent Effect | item: Cc1ccc(N2CCCC(NCC(=O)NC3CCOCC3)C2)nn1 (configuration not stated)
-- reply 4.11

----------
biological target: Chromo domain-containing protein 1 (Saccharomyces cerevisiae (strain ATCC 204508 / S288c) (Baker's yeast)); test: ScCHD-1 Enzyme Inhibition Assay; assay type: functional; parameters: scale not given: in the data most compounds retested in dose-response had high values; settings: 30 µM
For each of the molecules below, state its Percent Effect.
Give your result in % as a bare value.

-- ask Which Percent Effect reading was recorded for the molecule COCCN(C)C(=O)Cn1cccc(OC)c1=O ?
-- reply -2.41

-- ask Recorded Percent Effect of Cc1cc(C(=O)N2CCC(c3nccn3Cc3ccncc3)CC2)no1 , please.
-- reply -1.03

-- ask What value of Percent Effect has been reported for the following molecule? COCC(C)(O)CNC(=O)COc1ccccc1OC (stereo not given)
-- reply -3.71

-- ask Record request: Percent Effect value, item CC(C)c1nn(C)c(N(C)C)c1CNCC(O)c1ccccc1F (stereo not given)
-- reply -8.47

-- ask I am curious: what Percent Effect value has been reported for COc1ccc(C(C)=O)c(OCC(=O)NC(C)c2ccc(F)cc2)c1 (stereo not given) ?
-- reply -6.76

-- ask So what does the record say about Percent Effect for N#Cc1cccnc1NCCNC(=O)N1CCCC(C(F)(F)F)C1 (stereo not given) ?
-- reply -4.05

-- ask Fill in the blank: the reported Percent Effect of CNC(=O)NC(=O)CN1CCC(c2cccc(F)c2)C1 (stereo not given) is ____.
-- reply 4.66

-- ask # lookup: Percent Effect of CC(C)c1nn(C)c(N(C)C)c1CNCCC(=O)NC1CCCC1
-- reply -6.05

-- ask // query Percent Effect value for entry O=C(CCn1cncn1)NC1(c2cccc(Br)c2)CCC1
-- reply -9.17

-- ask For COc1ccccc1C1(C(=O)NCCN2CCOCC2)CCOCC1 , what is its reported Percent Effect?
-- reply -7.26

-- ask Quick one: Percent Effect of Cc1nc(CN2CCc3cncnc3C2)oc1C ?
-- reply -7.36

-- ask Record request: Percent Effect value, item COc1ccc(CN(C)CC2CCCN2c2cccnn2)cc1F (stereo not given)
-- reply -22.1

-- ask Look at this molecule and give its reported Percent Effect. O=C(c1cccs1)N1CCC(n2nc(-c3ccco3)ccc2=O)CC1
-- reply -26.4

-- ask Find the recorded Percent Effect belonging to Cc1noc(Cl)c1CCC(=O)N1CCN(c2ncccn2)CC1 and report it.
-- reply 1.74

-- ask Data request, read-out Percent Effect, for O=S1(=O)CCCN1Cc1coc(-c2cccs2)n1
-- reply -3.41

-- ask Need Percent Effect of COc1ccc(OCCCN2CCOC(Cn3cccn3)C2)cc1 (stereo not given) , thanks.
-- reply -3.35

-- ask Need Percent Effect, item Cc1cc(C)n(CC2CN(CCOc3cccc(C#N)c3)CCO2)n1 (stereo not given)
-- reply -0.144

-- ask Would you mind telling me what Percent Effect value was observed for COc1ccc(CNC2CCN(CCc3ccncc3)CC2)cc1O ?
-- reply -9.05

-- ask Request the reported Percent Effect associated with c1ccc(-n2ncc(CNCC3CCCN3c3cccnn3)n2)cc1 (stereo not given)
-- reply 0.0713

-- ask Could you tell me which Percent Effect is on file for CCO[C@@H]1CC[C@H]2[C@H]1OCCN2C(=O)C1CCOCC1 ?
-- reply -4.28

-- ask Give its Percent Effect value. Item: CCOc1cc(C)nc(N2CCN(C(=O)CC)CC2)n1
-- reply 7.75

-- ask Look at this molecule and give its reported Percent Effect. CO[C@H]1CN(C(=O)c2ccc3oc(C)cc3c2)CC[C@@]12CCCO2
-- reply -11.8

-- ask Requested field: Percent Effect. Item: CSCC[C@H](N)C(=O)NCc1cc2n(n1)CCCN(C1CCCCC1)C2
-- reply -3.52

-- ask Record request: Percent Effect value, item CC(NC(=O)NCCCc1n[nH]c(N)c1C#N)c1ccccc1 (stereo not given)
-- reply -5.91

-- ask Any idea what Percent Effect was measured for O=S(=O)(NCC1(O)CCOc2ccccc21)c1cccs1 (stereo not given) ?
-- reply 0.9

----------
molecular target: Sialic acid-binding Ig-like lectin 9 (Homo sapiens) (UniProt Q9Y336); test: Hs-Siglec9 ALPHAscreen SOP 20170721; set-up: scale not given: direction of the effect not stated beside the values; conditions: 10 µM
For each entry below, report its Percent Effect value.
Number in %, nothing else.

-- ask Can you share its Percent Effect? I mean this compound: CC(C)(NCC(=O)NCC(F)(F)F)c1ccc2c(c1)OCCO2
-- reply 1.31

-- ask Which Percent Effect is listed for Cn1cc(C[C@H]2[C@@H](O)CCN2C(=O)C2CC=CC2)cn1 ?
-- reply -3.96

-- ask # Percent Effect lookup, item c1ncn(Cc2cnc3n2CCN(Cc2ccsc2)CC3)n1
-- reply 2.34

-- ask May I ask what Percent Effect has been recorded for CC(NC(=O)NCCOc1ccc(F)c(F)c1)c1nncn1C (stereo not drawn) ?
-- reply 5.57

-- ask For CC(C)c1nc(C(=O)NCCn2ccnc2)nn1-c1cccc(F)c1 , what is its reported Percent Effect?
-- reply -4.66

-- ask Param item = CCCn1c(C)c(CC(=O)N(C)CCOC)c2c1CC(C)(C)CC2=O ; retrieve measured Percent Effect.
-- reply 11.4

-- ask Given Cc1cccc(-c2[nH]ncc2CNCC2CCN(CC(C)O)CC2)c1 (stereo not drawn) , state its recorded Percent Effect.
-- reply 11.6

-- ask I have this compound here, Cc1cnn(CC(C)NCc2csc(-c3ccsc3)n2)c1 (stereo not drawn) , and I need its recorded Percent Effect.
-- reply 0.382

-- ask Look at this compound and give its reported Percent Effect. Cc1cc(=O)[nH]c(CCNC(=O)C(c2ccc(F)cc2)N(C)C)n1 (stereo not drawn)
-- reply 1.73

-- ask Quick check: Percent Effect of COCCNC(=O)NCc1ccc(OC(C)C)c(F)c1 ?
-- reply 9.7

-- ask Find the recorded Percent Effect belonging to CN1CCC(c2cccc(Cc3ccc(F)cc3)n2)CC1 and report it.
-- reply -2.02

-- ask Give its Percent Effect value. Item: O=C([C@H]1CCCO1)N1CCc2ncnc(NC3CC3)c2CC1
-- reply -2.06

-- ask Which Percent Effect value belongs to COCC1c2c(cnn2C)CCN1Cc1ccoc1 (stereo not drawn) ?
-- reply 2.05

-- ask Which Percent Effect value is on record for Cc1cccc(Cn2c3c(ccc2=O)CCN(Cc2ccoc2)CC3)n1 ?
-- reply 11.9

-- ask For the compound shown here, c1nc2c(c(-c3ccsc3)n1)CCN(Cc1ccoc1)CC2 , give the reported Percent Effect.
-- reply -1.76

-- ask Which Percent Effect reading was recorded for the compound CCc1n[nH]c(C2CN(Cc3nccn3CC)CCO2)n1 (stereo not drawn) ?
-- reply -14.5

-- ask Request the reported Percent Effect associated with c1ccc(-n2nnnc2CN2CCCC(Cn3cncn3)C2)cc1 (stereo not drawn)
-- reply 4.14

-- ask GET /values?readout=Percent Effect&item= O=C(C1COCCO1)N1CCN(Cc2ccc3c(c2)CCO3)CC1 (stereo not drawn)
-- reply 5.55

-- ask Dear colleague, I am looking for the recorded Percent Effect of the following compound: CC(Cn1cccn1)NCc1nc(-c2cccc(Cl)c2)no1 (stereo not drawn)
-- reply 3.09

-- ask # lookup: Percent Effect of Cc1csc(CCCNC(=O)[C@H]2CNC[C@@H](C(=O)N3CCCC3)C2)n1
-- reply 8.38

-- ask If you can, please state the reported Percent Effect value of CC(=O)Nc1nc(C(=O)NC(C)c2ccc3c(c2)OCCO3)cs1 (stereo not drawn) .
-- reply -11.3

-- ask Recorded Percent Effect of CCCn1ccc(C(=O)N2CCC(C)CC2)n1 , please.
-- reply 5.81

-- ask Quick one: Percent Effect of CCc1cnc(CN(C(C)=O)C2CCN(CCc3cnn(C)c3)C2)o1 (stereo not drawn) ?
-- reply -1.24

-- ask Requested field: Percent Effect. Item: Cc1nc(CN2CCc3cncnc3C2)oc1C
-- reply 7.08

-- ask # get_value(readout='Percent Effect', item= Cc1cccc(CN2CCc3ncnc(N4CCOCC4)c3CC2)n1 )
-- reply -1.38

-- ask Using the record for Cc1ccoc1C(=O)N1CCO[C@H]2[C@H](OCCN(C)C)CC[C@@H]21 , report its Percent Effect.
-- reply 15.6

-- ask Suppose we examine the compound Cc1ccc(C(=O)N2CC[C@@H]3[C@H]2CCC(=O)N3c2ccccc2)o1 ; what Percent Effect value has been reported?
-- reply -0.294

-- ask Entry Cc1cccc(NC(=O)Cn2ncc(SCC(N)=O)c(Cl)c2=O)c1C : reported Percent Effect = ?
-- reply -15.5

-- ask Given the compound CC1CCCN(CCNC(=O)c2ccn(-c3ccccc3)n2)C1 (stereo not drawn) , what is its reported Percent Effect?
-- reply -6.84

-- ask Requested read-out: Percent Effect. Entry: c1csc(CN2CCn3c(Cn4cncn4)cnc3C2)n1
-- reply 4.38

-- ask I would be grateful if you could share the reported Percent Effect for COc1cccc(C)c1C(=O)N1C[C@@H](CN(C)C)[C@@H](CO)C1 .
-- reply 7.05

-- ask Entry Cc1nc(CCN(C)C(=O)C2COc3ccccc3C2)no1 (stereo not drawn) has what Percent Effect?
-- reply 19.8

-- ask // query Percent Effect value for entry Cc1noc(CN2CCN(CC(C)O)CC2)n1 (stereo not drawn)
-- reply 4.09

-- ask Tell me the measured Percent Effect of O=C1CN(Cc2nnc(-c3ccc(Br)o3)o2)CCN1 , please.
-- reply -1.55

-- ask Record request: Percent Effect value, item COCCOc1ccccc1C(=O)N1CCCCC1c1nccs1 (stereo not drawn)
-- reply 16.3

-- ask Param item = Cc1cc(NC(=O)CN2CCn3c(nnc3C3CC3)C2)n(C)n1 ; retrieve measured Percent Effect.
-- reply -1.43

-- ask Item Cn1cc(CN2CCn3c(CNC(=O)c4cccn4C)cnc3C2)cn1 has what recorded Percent Effect?
-- reply 26.8

-- ask # Percent Effect lookup, item CCSCCNC(=O)C(c1cccc(F)c1)N(C)C (stereo not drawn)
-- reply -3.42

-- ask Can you look up the measured Percent Effect of Cc1nc(CNCC2CCCN2c2cccnn2)no1 (stereo not drawn) for me?
-- reply -6.04

-- ask # lookup: Percent Effect of COc1cc(CNc2cnn(C)c2)cc2c1OCCO2
-- reply 3.9

-- ask // lookup Percent Effect for O=C(NCC(Cc1cccc(F)c1)N1CCCC1=O)c1cnccn1 (stereo not drawn)
-- reply -6.79

-- ask Which measured Percent Effect value corresponds to CCOc1ccccc1OC1CCN(C(=O)c2ccc(=O)[nH]n2)CC1 ?
-- reply 7.38

-- ask Query (compound): Cc1ccc(CC(=O)NCCCNS(C)(=O)=O)cc1 ; field requested: Percent Effect
-- reply 0.198

-- ask Looking for the measured Percent Effect of CC(C)C(=O)N1CCN(C(=O)c2cscn2)[C@H]2CS(=O)(=O)C[C@H]21 , can you help?
-- reply 5.33

-- ask Quick check: Percent Effect of CS(=O)(=O)N1CCC2(CN(C(=O)c3cccnc3)C2)C1 ?
-- reply 3.06

-- ask Record request: Percent Effect value, item CN(C)c1ccc(CNC(=O)c2ccc(Cl)cc2F)cc1
-- reply 2.05

-- ask Could you share which Percent Effect value was measured for CN(C(=O)Cn1nc(-c2ccc(F)cc2)ccc1=O)C1CCS(=O)(=O)C1 (stereo not drawn) ?
-- reply 10.6

-- ask I am curious: what Percent Effect value has been reported for CSc1ncccc1C(=O)N1C[C@H]2CC[C@@H]1CN(c1ncccn1)C2 ?
-- reply 12.7
